system: Mycobacterium tuberculosis; assay: Antimycobacterial activity against dormant stage of Mycobacterium tuberculosis H37Ra ATCC 25177 at 3 to 30 ug/ml by XRMA relative to control; assay type: functional
Active and inactive are the calls of the source. The calls are words filed in the database; no cut-off is given here.
assay_readout: Activity

1) COc1ccccc1-n1cc(C(c2c[nH]c3ccccc23)c2c[nH]c3ccccc23)nn1 Active
2) COc1ccc(-n2cc(C(c3c[nH]c4ccccc34)c3c[nH]c4ccccc34)nn2)cc1 Active
3) Brc1ccc2[nH]cc(C(c3cn(-c4ccccc4)nn3)c3c[nH]c4ccc(Br)cc34)c2c1 >87.18%
4) COc1ccc(-n2cc(C(c3c[nH]c4ccc(Br)cc34)c3c[nH]c4ccc(Br)cc34)nn2)cc1 >88.22%
5) Cc1ccc(-n2cc(C(c3c[nH]c4ccc(Br)cc34)c3c[nH]c4ccc(Br)cc34)nn2)cc1 Active

Then there is this compound:
Request: Consider the compound shown here: Clc1cccc(-n2cc(C(c3c[nH]c4ccccc34)c3c[nH]c4ccccc34)nn2)c1 What is its recorded Activity?
Response: >87.18%

###

test system: Mycobacterium tuberculosis; test: Antimycobacterial activity against active stage of Mycobacterium tuberculosis H37Ra ATCC 25177 at 3 to 30 ug/ml by XRMA relative to control; format: functional
Activity calls are given as the source filed them. The calls are words filed in the database; no cut-off is given here.
assay_readout: Activity

Observe how each entry below is paired with its result.
1. Clc1ccc(-n2cc(C(c3c[nH]c4ccccc34)c3c[nH]c4ccccc34)nn2)cc1 Active
2. O=[N+]([O-])c1cccc(-n2cc(C(c3c[nH]c4ccc(Br)cc34)c3c[nH]c4ccc(Br)cc34)nn2)c1 >87.18%
3. O=[N+]([O-])c1ccc(-n2cc(C(c3c[nH]c4ccc(Br)cc34)c3c[nH]c4ccc(Br)cc34)nn2)cc1 >87.18%
4. Clc1cccc(-n2cc(C(c3c[nH]c4ccc(Br)cc34)c3c[nH]c4ccc(Br)cc34)nn2)c1 >87.18%
5. COc1ccc(-n2cc(C(c3c[nH]c4ccccc34)c3c[nH]c4ccccc34)nn2)cc1 Active

Hi team, please reply with Activity for each item in this list.
1. Clc1ccc(-n2cc(C(c3c[nH]c4ccc(Br)cc34)c3c[nH]c4ccc(Br)cc34)nn2)cc1
2. COc1ccccc1-n1cc(C(c2c[nH]c3ccc(Br)cc23)c2c[nH]c3ccc(Br)cc23)nn1
3. c1ccc(-n2cc(C(c3c[nH]c4ccccc34)c3c[nH]c4ccccc34)nn2)cc1
4. Clc1cccc(-n2cc(C(c3c[nH]c4ccccc34)c3c[nH]c4ccccc34)nn2)c1
5. COc1ccc(-n2cc(C(c3c[nH]c4ccc(Br)cc34)c3c[nH]c4ccc(Br)cc34)nn2)cc1
6. O=[N+]([O-])c1ccccc1-n1cc(C(c2c[nH]c3ccc(Br)cc23)c2c[nH]c3ccc(Br)cc23)nn1

Response:
[">88.22%", "Active", "Active", ">87.18%", ">88.22%", ">87.18%"]
